Below: a set of entries, each annotated with reported IC50.
- assayed system: B-Raf kinase (Homo sapiens)
- Construct: GST (N); purchased Sigma
- Sequence (P15056 416-766): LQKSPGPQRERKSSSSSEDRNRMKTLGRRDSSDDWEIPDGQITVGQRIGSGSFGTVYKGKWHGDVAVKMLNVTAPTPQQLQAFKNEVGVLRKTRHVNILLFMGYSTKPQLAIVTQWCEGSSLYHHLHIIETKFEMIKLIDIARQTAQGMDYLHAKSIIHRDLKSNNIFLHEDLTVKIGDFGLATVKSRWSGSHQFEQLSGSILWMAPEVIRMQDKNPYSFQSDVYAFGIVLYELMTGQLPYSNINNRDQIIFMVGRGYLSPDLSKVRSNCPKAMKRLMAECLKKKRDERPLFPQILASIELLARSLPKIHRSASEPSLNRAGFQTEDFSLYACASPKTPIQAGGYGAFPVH
- assay explanation: Biochemical assay for B-Raf.1 (coupled pyruvate kinase/lactate dehydrogenase)
- experimental conditions: read-out: BRAF.1 IC50
measured metric: IC50

{"molecule": "Cc1cc(F)c(NC(=O)NC[C@H]2CCO2)cc1-c1cc(OCCO)nc(-c2ccnc3[nH]ncc23)c1", "measured metric": "IC50", "recorded value": "> 1000 nM"}
{"molecule": "Cc1cc(F)c(NC(=O)NCCC2(C)CC2)cc1-c1cc(OCCO)nc(-c2ccncc2)c1", "measured metric": "IC50", "recorded value": "≤ 100 nM"}
{"molecule": "COC(=O)Nc1cc(-c2cc(-c3cc(NC(=O)N4CCC(C(F)(F)F)C4)ccc3C)cc(OCCO)n2)ccn1 (stereo not drawn)", "measured metric": "IC50", "recorded value": "≤ 100 nM"}
{"molecule": "Cc1cc(F)c(NC(=O)NCCC(C)(C)C)cc1-c1cc(N2CCOCC2)nc(N2CCOCC2)c1", "measured metric": "IC50", "recorded value": "≤ 100 nM"}
{"molecule": "COC(=O)Nc1cc(-c2cc(-c3cc(NC(=O)NCCC4(C)CC4)cnc3C)ccn2)ccn1", "measured metric": "IC50", "recorded value": "≤ 100 nM"}
{"molecule": "CNC(=O)c1cc(-c2cnnc(-c3cc(NC(=O)N4CC[C@@H](OC(F)(F)F)C4)ccc3C)c2)ccn1", "measured metric": "IC50", "recorded value": "500 to 1000 nM"}
{"molecule": "COC(=O)Nc1cc(-c2nccc(-c3cc(NC(=O)NCCC(C)(C)F)c(F)cc3C)n2)ccn1", "measured metric": "IC50", "recorded value": "≤ 100 nM"}
{"molecule": "COC(=O)Nc1cc(-c2cc(-c3cc(NC(=O)N4CC[C@H](C(F)(F)F)C4)ccc3C)nc(C)n2)ccn1", "measured metric": "IC50", "recorded value": "≤ 100 nM"}
{"molecule": "CNC(=O)c1cc(-c2cnnc(-c3cc(NC(=O)N4CCC(C(C)(C)C)C4)cnc3C)c2)ccn1 (stereo not drawn)", "measured metric": "IC50", "recorded value": "> 1000 nM"}
{"molecule": "Cc1ncc(NC(=O)NC[C@H](O)C(C)(C)C)cc1-c1ccnc(-c2ccnc(NC(=O)C3CC3)c2)c1", "measured metric": "IC50", "recorded value": "≤ 100 nM"}
{"molecule": "COC(C)(C)CCNC(=O)Nc1cc(-c2cc(-c3ccnc(NC(=O)C4CC4)c3)cnn2)c(C)cc1F", "measured metric": "IC50", "recorded value": "≤ 100 nM"}
{"molecule": "CNC(=O)c1cc(-c2cc(-c3cc(NC(=O)NCCC4(C)CC4)c(F)cc3C)cc(OCCO)n2)ccn1", "measured metric": "IC50", "recorded value": "≤ 100 nM"}
{"molecule": "Cc1ccc(NC(=O)N2CCC(C(F)(F)F)C2)cc1-c1cccc(-c2cc(NC(=O)C3CC3)ncn2)c1 (stereo not drawn)", "measured metric": "IC50", "recorded value": "≤ 100 nM"}
{"molecule": "Cc1cc(F)c(NC(=O)N2CC[C@H](C(F)(F)F)C2)cc1-c1cncc(-c2cc(NC(=O)C3CC3)ncn2)c1", "measured metric": "IC50", "recorded value": "≤ 100 nM"}
{"molecule": "Cc1ccc(NC(=O)N2CC[C@@H](C(F)(F)F)C2)cc1-c1cncc(-c2ccnc(NC(=O)C3CC3)c2)c1", "measured metric": "IC50", "recorded value": "≤ 100 nM"}

---

compounds and their reported IC50
- assayed system: B-Raf kinase (Homo sapiens)
- Construct: GST (N); purchased Sigma
- assay explanation: Biochemical assay for B-Raf.2 (coupled pyruvate kinase/lactate dehydrogenase)
- experimental conditions: read-out: BRAF.2 IC50

{"compound": "CNC(=O)c1cc(-c2cncc(-c3cc(NC(=O)N4CC[C@H](C(C)C)C4)ccc3C)c2)ccn1 [Example 229]", "IC50": "100 to 500 nM"}
{"compound": "Cc1ccc(NC(=O)N2CC[C@H](C)C2)cc1-c1cncc(-c2cc(NC(=O)C3CC3)ncn2)c1 [Example 227]", "IC50": "≤ 100 nM"}
{"compound": "CNC(=O)c1cc(-c2cc(-c3cc(NC(=O)N4CC[C@H](C(F)(F)F)C4)ccc3C)ccn2)ccn1 [Example 215]", "IC50": "100 to 500 nM"}
{"compound": "CNC(=O)c1cc(-c2cncc(-c3cc(NC(=O)N4CC[C@H](C(C)C)C4)ccc3C)c2)ncn1 [Example 226]", "IC50": "500 to 1000 nM"}

---

- assayed system: B-Raf kinase (Homo sapiens)
- Construct: GST (N); purchased Sigma
- assay explanation: Biochemical assay for B-Raf.1 (coupled pyruvate kinase/lactate dehydrogenase)
- experimental conditions: read-out: BRAF.1 IC50
pIC50: −log10 of the molar value.
Listing of recorded pIC50 by entry.
measured metric: pIC50

{"compound": "COC(=O)Nc1cc(-c2cc(-c3cc(NC(=O)NCCC(C)(C)C)cnc3C)ccn2)ccn1 [Example 109]", "assayed system": "B-Raf kinase (Homo sapiens)", "measured metric": "pIC50", "recorded value": "≥ 7.00"}
{"compound": "Cc1cc(F)c(NC(=O)NCCC2(C(F)(F)F)CC2)cc1-c1cc(N2CCOCC2)nc(N2CC(N(C)C)C2)n1 [Example 30]", "assayed system": "B-Raf kinase (Homo sapiens)", "measured metric": "pIC50", "recorded value": "< 6.00"}
{"compound": "COC(=O)Nc1cc(-c2nc(OCCO)cc(-c3cc(NC(=O)NCCC(C)(C)F)c(F)cc3C)n2)ccn1 [Example 161]", "assayed system": "B-Raf kinase (Homo sapiens)", "measured metric": "pIC50", "recorded value": "≥ 7.00"}
{"compound": "Cc1ccc(NC(=O)Nc2cn(C)nc2C(F)(F)F)cc1-c1cc(OCCO)nc(N2CCOCC2)c1 [Example 42]", "assayed system": "B-Raf kinase (Homo sapiens)", "measured metric": "pIC50", "recorded value": "< 6.00"}
{"compound": "Cc1ccc(NC(=O)N2CC[C@H](C(F)(F)F)C2)cc1-c1cncc(-c2ccnc(NC(=O)C3CC3)c2)c1 [Example 197]", "assayed system": "B-Raf kinase (Homo sapiens)", "measured metric": "pIC50", "recorded value": "≥ 7.00"}
{"compound": "COC[C@@H]1CCN(C(=O)Nc2cnc(C)c(-c3cc(OCCO)nc(-c4ccnc(NC(=O)OC)c4)c3)c2)C1 [Example 160]", "assayed system": "B-Raf kinase (Homo sapiens)", "measured metric": "pIC50", "recorded value": "6.30 to 7.00"}
{"compound": "COC1(CCNC(=O)Nc2cc(-c3ccnc(-c4ccnc(NC(=O)C5CC5)c4)c3)c(C)cc2F)CC1 [Example 116]", "assayed system": "B-Raf kinase (Homo sapiens)", "measured metric": "pIC50", "recorded value": "≥ 7.00"}

---

- assayed system: B-Raf kinase (Homo sapiens)
- Construct: GST (N); purchased Sigma
- assay explanation: Biochemical assay for B-Raf.1 (coupled pyruvate kinase/lactate dehydrogenase)
- experimental conditions: read-out: BRAF.1 IC50
- Procedure: Biochemical Assay for B-Raf.1 Activity of B-Raf kinase (SEQ. ID NO: 2) was determined spectroscopically using a coupled pyruvate kinase/lactate dehydrogenase assay that continuously monitors the ATP hydrolysis-dependent oxidation of NADH (e.g., Schindler et al., Science, 2000, 289, 1938-1942). […] Inhibition of B-Raf was measured by adding serial diluted test compound (final assay concentration of 1% DMSO). […] The reaction rate was calculated using the 4 to 5 h time frame. […]
Quick reference: IC50 of the listed items.

{"compound": "Cc1cc(F)c(NC(=O)NCCC(C)(C)C#N)cc1-c1cccc(-c2cc(NC(=O)C3CC3)ncn2)c1", "assayed system": "B-Raf kinase (Homo sapiens)", "IC50": "≤ 100 nM"}
{"compound": "COC(=O)Nc1cc(-c2cnnc(-c3cccc(NC(=O)N4CC[C@@H](OC)C4)c3)c2)ccn1", "assayed system": "B-Raf kinase (Homo sapiens)", "IC50": "> 1000 nM"}
{"compound": "COC(=O)Nc1cc(-c2cnnc(-c3cc(NC(=O)N4CCC(C(C)(C)C)C4)ccc3C)c2)ccn1 (stereo not drawn)", "assayed system": "B-Raf kinase (Homo sapiens)", "IC50": "100 to 500 nM"}
{"compound": "CC(=O)Nc1cc(-c2cc(-c3cc(NC(=O)NCCC4(C)CC4)c(F)cc3C)cc(C3CC3)n2)ccn1", "assayed system": "B-Raf kinase (Homo sapiens)", "IC50": "≤ 100 nM"}
{"compound": "Cc1ncc(NC(=O)NCCC(C)(C)C)cc1-c1cc(N2CCOCC2)c(=O)n(C)c1", "assayed system": "B-Raf kinase (Homo sapiens)", "IC50": "> 1000 nM"}
{"compound": "Cc1cc(F)c(NC(=O)NCCC(C)(C)F)cc1-c1cccc(-c2cc(NC(=O)C3CC3)ncn2)c1", "assayed system": "B-Raf kinase (Homo sapiens)", "IC50": "≤ 100 nM"}
{"compound": "COC(C)(C)CCNC(=O)Nc1cc(-c2cccc(-c3ccnc(NC(C)=O)c3)c2)c(C)cc1F", "assayed system": "B-Raf kinase (Homo sapiens)", "IC50": "≤ 100 nM"}
{"compound": "Cc1ccc(NC(=O)NC2CCCCCC2)cc1-c1cc(OCCO)nc(N2CCOCC2)c1", "assayed system": "B-Raf kinase (Homo sapiens)", "IC50": "100 to 500 nM"}
{"compound": "COC(C)(C)CCNC(=O)Nc1cc(-c2ccnc(-c3ccnc(NC(=O)C4CC4)c3)n2)c(C)cc1F", "assayed system": "B-Raf kinase (Homo sapiens)", "IC50": "≤ 100 nM"}
{"compound": "CC(=O)Nc1cc(-c2cc(-c3cc(NC(=O)NC4CCCCC4)c(F)cc3C)cc(OCCO)n2)ccn1", "assayed system": "B-Raf kinase (Homo sapiens)", "IC50": "≤ 100 nM"}
{"compound": "Cc1ncc(NC(=O)NCCC2(C)CC2)cc1-c1cc(OCCO)nc(-c2ccnc3c2CC(=O)N3)c1", "assayed system": "B-Raf kinase (Homo sapiens)", "IC50": "≤ 100 nM"}
{"compound": "COC(=O)Nc1cc(-c2cc(-c3cc(NC(=O)N4CCC(C(C)(C)O)C4)cnc3C)ccn2)ccn1 (stereo not drawn)", "assayed system": "B-Raf kinase (Homo sapiens)", "IC50": "> 1000 nM"}
{"compound": "Cc1cc(F)c(NC(=O)NCCC(C)(C)C)cc1-c1cc(OCCO)nc(C2=CCOCC2)c1", "assayed system": "B-Raf kinase (Homo sapiens)", "IC50": "≤ 100 nM"}
{"compound": "COC(C)(C)CCNC(=O)Nc1ccc(C)c(-c2cc(-c3ccnc(NC(C)=O)c3)n(C)c(=O)c2)c1", "assayed system": "B-Raf kinase (Homo sapiens)", "IC50": "> 1000 nM"}
{"compound": "Cc1ccc(NC(=O)N2CC[C@@H](C(F)(F)F)C2)cc1-c1cccc(-c2cc(NC(=O)C3CC3)ncn2)c1", "assayed system": "B-Raf kinase (Homo sapiens)", "IC50": "≤ 100 nM"}
